target: human recombinant COX-2 (Homo sapiens); assay: In vitro COX-2 enzymatic assay (Cayman kit 560131)
Sequence (P35354 18-604): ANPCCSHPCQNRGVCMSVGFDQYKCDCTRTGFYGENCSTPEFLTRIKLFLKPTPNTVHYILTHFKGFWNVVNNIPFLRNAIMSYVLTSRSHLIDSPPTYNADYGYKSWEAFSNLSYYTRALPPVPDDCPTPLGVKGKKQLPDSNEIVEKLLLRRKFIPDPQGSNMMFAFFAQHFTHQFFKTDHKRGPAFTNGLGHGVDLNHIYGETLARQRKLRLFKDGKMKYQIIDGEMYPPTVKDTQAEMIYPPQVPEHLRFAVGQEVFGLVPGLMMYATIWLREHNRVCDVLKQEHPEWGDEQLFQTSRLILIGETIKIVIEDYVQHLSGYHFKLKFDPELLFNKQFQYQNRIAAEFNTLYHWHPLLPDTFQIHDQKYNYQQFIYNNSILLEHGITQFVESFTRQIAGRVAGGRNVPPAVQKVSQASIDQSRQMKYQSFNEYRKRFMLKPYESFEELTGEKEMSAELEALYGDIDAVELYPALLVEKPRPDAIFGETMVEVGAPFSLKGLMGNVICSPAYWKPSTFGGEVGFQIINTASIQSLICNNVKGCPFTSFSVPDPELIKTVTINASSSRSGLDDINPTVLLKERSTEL
I'd appreciate it if you could supply pIC50 values for the items below.
Numbers only, as −log10 of the molar value.

Go through the items and report each one's pIC50.
1. Cc1ccnc(NS(=O)(=O)c2ccc(/N=N/c3ccc(O)c(C(=O)N4CCCCC4)c3)cc2)n1
2. Cc1ccnc(NS(=O)(=O)c2ccc(/N=N/c3ccc(O)c(C(=O)N4CCOCC4)c3)cc2)n1

Output line:
1. 7.05
2. 7.22

Please supply pIC50 for each of the following items, keeping them in order.
1. NS(=O)(=O)c1ccc(/N=N/c2ccc(O)c(C(=O)N3CCOCC3)c2)cc1
2. NS(=O)(=O)c1ccc(/N=N/c2ccc(O)c(C(=O)NCc3ccccc3)c2)cc1
3. O=C(NCc1ccccc1)c1cc(/N=N/c2ccc(S(=O)(=O)Nc3ncccn3)cc2)ccc1O
4. O=C(c1cc(N=Nc2ccc(S(=O)(=O)Nc3nccs3)cc2)ccc1O)N1CCOCC1
5. O=C(NCc1ccccc1)c1cc(/N=N/c2ccc(S(=O)(=O)Nc3nccs3)cc2)ccc1O
6. O=C(c1cc(/N=N/c2ccc(S(=O)(=O)Nc3nccs3)cc2)ccc1O)N1CCCCC1

Output line:
1: 7.10; 2: 6.92; 3: 7.00; 4: 7.00; 5: 6.96; 6: 7.10

For every listed record, write down its pIC50.
1. CCCCNC(=O)c1cc(/N=N/c2ccc(S(N)(=O)=O)cc2)ccc1O
2. O=C(c1cc(/N=N/c2ccc(S(=O)(=O)Nc3ncccn3)cc2)ccc1O)N1CCCCC1
3. NS(=O)(=O)c1ccc(/N=N/c2ccc(O)c(C(=O)N3CCCCC3)c2)cc1
4. O=C(c1cc(/N=N/c2ccc(S(=O)(=O)Nc3ncccn3)cc2)ccc1O)N1CCOCC1
5. CCCCNC(=O)c1cc(/N=N/c2ccc(S(=O)(=O)Nc3nccc(C)n3)cc2)ccc1O
6. CCCCNC(=O)c1cc(/N=N/c2ccc(S(=O)(=O)Nc3nccs3)cc2)ccc1O
7. CCCCNC(=O)c1cc(/N=N/c2ccc(S(=O)(=O)Nc3ncccn3)cc2)ccc1O

Output line:
1: 6.96; 2: 7.30; 3: 6.85; 4: 7.15; 5: 7.05; 6: 7.15; 7: 7.10

---

Assignment: determine reported zone of inhibition at 1000 µg/mL for the given molecules.
test system: Escherichia coli (RCMB 010052); assay: Inhibition zone, agar cup diffusion; settings: RCMB010052, 24 h, read-out: inhibition zones (IZ) E.coli
Write your answer as a measured quantity: the number, then the unit.

Before answering, review these 10 worked examples.
{"molecule": "NS(=O)(=O)c1ccc(/N=N/c2ccc(O)c(C(=O)N3CCOCC3)c2)cc1 [Compound 5l]", "zone of inhibition at 1000 µg/mL": "14 mm"}
{"molecule": "O=C(NCc1ccccc1)c1cc(/N=N/c2ccc(S(=O)(=O)Nc3nccs3)cc2)ccc1O [Compound 5f]", "zone of inhibition at 1000 µg/mL": "16 mm"}
{"molecule": "O=C(NCc1ccccc1)c1cc(/N=N/c2ccc(S(=O)(=O)Nc3ncccn3)cc2)ccc1O [Compound 5g]", "zone of inhibition at 1000 µg/mL": "16 mm"}
{"molecule": "CCCCNC(=O)c1cc(/N=N/c2ccc(S(N)(=O)=O)cc2)ccc1O [Compound 5a]", "zone of inhibition at 1000 µg/mL": "14 mm"}
{"molecule": "O=C(c1cc(/N=N/c2ccc(S(=O)(=O)Nc3nccs3)cc2)ccc1O)N1CCCCC1 [Compound 5i]", "zone of inhibition at 1000 µg/mL": "16 mm"}
{"molecule": "NS(=O)(=O)c1ccc(/N=N/c2ccc(O)c(C(=O)N3CCCCC3)c2)cc1 [Compound 5h]", "zone of inhibition at 1000 µg/mL": "14 mm"}
{"molecule": "CCCCNC(=O)c1cc(/N=N/c2ccc(S(=O)(=O)Nc3ncccn3)cc2)ccc1O [Compound 5c]", "zone of inhibition at 1000 µg/mL": "16 mm"}
{"molecule": "O=C(c1cc(N=Nc2ccc(S(=O)(=O)Nc3nccs3)cc2)ccc1O)N1CCOCC1 [Compound 5m]", "zone of inhibition at 1000 µg/mL": "18 mm"}
{"molecule": "Cc1ccnc(NS(=O)(=O)c2ccc(/N=N/c3ccc(O)c(C(=O)N4CCOCC4)c3)cc2)n1 [Compound 5o]", "zone of inhibition at 1000 µg/mL": "16 mm"}
{"molecule": "NS(=O)(=O)c1ccc(/N=N/c2ccc(O)c(C(=O)NCc3ccccc3)c2)cc1 [Compound 5e]", "zone of inhibition at 1000 µg/mL": "16 mm"}

Go through the list and state zone of inhibition at 1000 µg/mL for each entry.
1. O=C(c1cc(/N=N/c2ccc(S(=O)(=O)Nc3ncccn3)cc2)ccc1O)N1CCOCC1 [Compound 5n]
2. Cc1ccnc(NS(=O)(=O)c2ccc(/N=N/c3ccc(O)c(C(=O)N4CCCCC4)c3)cc2)n1 [Compound 5k]
3. CCCCNC(=O)c1cc(/N=N/c2ccc(S(=O)(=O)Nc3nccc(C)n3)cc2)ccc1O [Compound 5d]
4. O=C(c1cc(/N=N/c2ccc(S(=O)(=O)Nc3ncccn3)cc2)ccc1O)N1CCCCC1 [Compound 5j]
5. C[C@H]1COc2c(N3CCN(C)CC3)c(F)cc3c(=O)c(C(=O)O)cn1c23 [Levofloxacin, levofloxacin, reference compound]
6. CCCCNC(=O)c1cc(/N=N/c2ccc(S(=O)(=O)Nc3nccs3)cc2)ccc1O [Compound 5b]

Output line:
1: 17 mm; 2: 16 mm; 3: 16 mm; 4: 14 mm; 5: 11 mm; 6: 14 mm

Source listed as paper PMC9225712.
